Some compounds, each annotated with its measured viability, T/C.
# Tested on: 388556-164-R-J1-PDC complex spheroid viability
# Measurement Notes: Anticancer human tumor 388556-164-R-J1-PDC patient-derived colon adenocarcinoma cell line growth inhibition [RAS]
# Run Parameters: second compound 0.0949 µM; first compound 0.316 µM; stronger effect = lower value
The reply should contain only the number, in %.

Answered cases to consult:
Compound	Assay Endpoint	Value
CCC(CC)c1cc(NC2CCC(N)C2)n2nccc2n1 (centres undefined) + CCn1c(-c2cccnc2C(C)OC)c2c3cc(ccc31)N1CCOC(CC(NC(=O)C(C(C)C)N(C)C(=O)C3(F)CCN(C(=O)C#CC(C)(C)N(C)C)CC3)C(=O)N3CCCC(N3)C(=O)OCC(C)(C)C2)C1	viability, T/C	100
Nc1ccn(C2OC(CO)C(O)C2(F)F)c(=O)n1 (centres undefined) + CCn1c(-c2cc(N3CCN(C)CC3)cnc2C(C)OC)c2c3cc(ccc31)-c1csc(n1)CC(NC(=O)C1CC1C)C(=O)N1CCCC(N1)C(=O)OCC(C)(C)C2	viability, T/C	40.6
Cc1nc(N2CCC3(CC2)COC(C)C3N)c(CO)nc1Sc1ccnc(N)c1Cl (centres undefined) + CCn1c(-c2cc(N3CCN(C)CC3)cnc2C(C)OC)c2c3cc(ccc31)-c1csc(n1)CC(NC(=O)C1CC1C)C(=O)N1CCCC(N1)C(=O)OCC(C)(C)C2	viability, T/C	30.9

Lab note: next compound to report on.
In: Which value of viability, T/C has been reported for CC(Nc1ccc2c(c1)OCCn1cc(N3C(=O)OCC3C(F)F)nc1-2)C(N)=O (centres undefined) + CCn1c(-c2cc(N3CCN(C)CC3)cnc2C(C)OC)c2c3cc(ccc31)-c1csc(n1)CC(NC(=O)C1CC1C)C(=O)N1CCCC(N1)C(=O)OCC(C)(C)C2 in the records?
Out: 31.6

----------
# Tested on: 388556-164-R-J1-PDC complex spheroid viability
# Measurement Notes: Anticancer human tumor 388556-164-R-J1-PDC cell line growth inhibition [RAS];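 note: spheroids exposed to compound for 7 days before readout; 100% = DMSO vehicle control luminescence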
# Run Parameters: second compound 3.16 µM; first compound 0.01 µM; stronger effect = lower value
Assay Endpoint: viability, T/C

Answered cases to consult:
Compound	viability, T/C
C=CC(=O)N1CCN(c2nc(OCC3CCCN3C)nc3c(F)c(-c4nc(N)cc(C)c4C(F)(F)F)c(Cl)cc23)C(C)C1 (stereo not drawn) + C#Cc1c(F)ccc2cc(O)cc(-c3ncc4c(N5CC6CCC(C5)N6)nc(OCC56CCCN5CC(F)C6)nc4c3F)c12	80.9%
CCN1CCN(Cc2ccc(Nc3ncc(F)c(-c4cc(F)c5nc(C)n(C(C)C)c5c4)n3)nc2)CC1 + C#Cc1c(F)ccc2cc(O)cc(-c3ncc4c(N5CC6CCC(C5)N6)nc(OCC56CCCN5CC(F)C6)nc4c3F)c12	73.9%

Lab note: next compound to report on.
In: Which value of viability, T/C has been reported for C=CC(=O)Nc1cc(Nc2nccc(-c3cn(C)c4ccccc34)n2)c(OC)cc1N(C)CCN(C)C + C#Cc1c(F)ccc2cc(O)cc(-c3ncc4c(N5CC6CCC(C5)N6)nc(OCC56CCCN5CC(F)C6)nc4c3F)c12 in the records?
Out: 70.8%

----------
# System: 388556-164-R-J1-PDC complex spheroid viability
# Measurement Notes: Anticancer human tumor 388556-164-R-J1-PDC cell line growth inhibition [RAS];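 note: spheroids exposed to compound for 7 days before readout; 100% = DMSO vehicle control luminescence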
# Run Parameters: second compound 0.1 µM; first compound 0.03 µM; stronger effect = lower value
Assay Endpoint: viability, T/C (%)
The reply should contain only the number, in %.

In: Which value of viability, T/C has been reported for CCc1c2c(nc3ccc(O)cc13)-c1cc3c(c(=O)n1C2)COC(=O)[C@]3(O)CC + C#Cc1c(F)ccc2cc(O)cc(-c3ncc4c(N5CC6CCC(C5)N6)nc(OCC56CCCN5CC(F)C6)nc4c3F)c12 in the records?
Out: 70.3

In: Which value of viability, T/C has been reported for CC1(C)CCC(Nc2ncc(C(F)(F)F)c(-c3c[nH]c4c(P(C)(C)=O)c(C#N)ccc34)n2)CN1 (centres undefined) + C=CC(=O)N1CCN(c2nc(OCC3CCCN3C)nc3c(F)c(-c4nc(N)cc(C)c4C(F)(F)F)c(Cl)cc23)C(C)C1 in the records?
Out: 84.7

In: Which value of viability, T/C has been reported for CC1(C)CCC(Nc2ncc(C(F)(F)F)c(-c3c[nH]c4c(P(C)(C)=O)c(C#N)ccc34)n2)CN1 (centres undefined) + C#Cc1c(F)ccc2cc(O)cc(-c3ncc4c(N5CC6CCC(C5)N6)nc(OCC56CCCN5CC(F)C6)nc4c3F)c12 in the records?
Out: 101

In: Which value of viability, T/C has been reported for CCc1c2c(nc3ccc(O)cc13)-c1cc3c(c(=O)n1C2)COC(=O)[C@]3(O)CC + C=CC(=O)N1CCN(c2nc(OCC3CCCN3C)nc3c(F)c(-c4nc(N)cc(C)c4C(F)(F)F)c(Cl)cc23)C(C)C1 in the records?
Out: 61.3

Entry source: PubChem BioAssay AID2060907
